Each recorded value in this set is attributed to patent US9815851B2.

# IC50 annotations
- testedOn: RORγ ligand binding domain (LBD) (Homo sapiens, UniProt P51449)
- Construct: made in house; host or cells: E. coli BL-21 (BL3), vector pDEST15
- testSummary: TR-FRET Activity Assay (ligand sensing, RORγ-LBD / coactivator peptide interaction, LANCE)
- Type: biochemical
- measurementSetup: first value of the cell FRET/FF/REN; TR-FRET activity assay; read-out: pIC50 (FRET) (converted)
reportedProperty: IC50 (µM)

INSERT INTO results (molecule, testedon, reportedproperty, endpointvalue) VALUES
  ('Cc1c(C(=O)NCC2(O)CC[S+]([O-])CC2)cc(-c2cc(C(C)(C)C)c3c(c2)C2(CCO3)CC2)n1CC1CCCCC1 (stereo not drawn)', 'RORγ ligand binding domain (LBD) (Homo sapiens, UniProt P51449)', 'IC50', 1),
  ('Cc1c(-c2cc(C(=O)N[C@H]3C[C@H](C(=O)O)C3)c(C)n2CC2CCCCC2)ccc(S(=O)(=O)NC(C)(C)C)c1C', 'RORγ ligand binding domain (LBD) (Homo sapiens, UniProt P51449)', 'IC50', 0.501),
  ('Cc1c(C(=O)NC2CCOCC2)cc(-c2ccc(S(=O)(=O)NC(C)(C)C)c3c(F)cccc23)n1CC1CCCCC1', 'RORγ ligand binding domain (LBD) (Homo sapiens, UniProt P51449)', 'IC50', 1),
  ('Cc1c(C(N)=O)cc(-c2cc(C3CC3)cc(C(C)(C)C)c2)n1CC1CCCCC1', 'RORγ ligand binding domain (LBD) (Homo sapiens, UniProt P51449)', 'IC50', 1),
  ('Cc1c(C(=O)NC2CCOCC2)cc(-c2ccc(S(=O)(=O)NC(C)C(C)(C)O)c(C(F)(F)F)c2)n1CC1CCCCC1 (stereo not drawn)', 'RORγ ligand binding domain (LBD) (Homo sapiens, UniProt P51449)', 'IC50', 1),
  ('Cc1c(C(=O)NC2CNC(=O)C23CCOCC3)cc(-c2ccc(S(=O)(=O)NC(C)(C)C)c(C(F)(F)F)c2)n1CC1CCCCC1 (stereo not drawn)', 'RORγ ligand binding domain (LBD) (Homo sapiens, UniProt P51449)', 'IC50', 1),
  ('Cc1c(C(=O)NC2COC2)cc(-c2cc(C(C)(C)C)cc(C(C)(C)C)c2)n1CC1CC2CCC1C2 (stereo not drawn)', 'RORγ ligand binding domain (LBD) (Homo sapiens, UniProt P51449)', 'IC50', 0.501),
  ('Cc1c(C(=O)N[C@@H]2CCOC2)cc(-c2cc(C(C)(C)C)c3c(c2)C2(CCO3)CC2)n1CC1CCCCC1', 'RORγ ligand binding domain (LBD) (Homo sapiens, UniProt P51449)', 'IC50', 0.2),
  ('Cc1c(C(=O)NC2CCOCC2)cc(-c2ccc(S(=O)(=O)NC(C)(C)C)c(C(F)(F)F)c2)n1CC1(C)CCCC1', 'RORγ ligand binding domain (LBD) (Homo sapiens, UniProt P51449)', 'IC50', 0.251),
  ('Cc1c(C(=O)NC2CC2)cc(-c2cc(C(C)(C)C)cc(C3(C)CC3)c2)n1CC1CCCCC1', 'RORγ ligand binding domain (LBD) (Homo sapiens, UniProt P51449)', 'IC50', 0.316),
  ('Cc1c(S(=O)(=O)NC(C)(C)C)ccc(-c2cc(C(=O)NC3CCOCC3)c(C)n2CC2CCCCC2)c1Cl', 'RORγ ligand binding domain (LBD) (Homo sapiens, UniProt P51449)', 'IC50', 0.251),
  ('CNC(=O)C(C)(C)CCNC(=O)c1cc(-c2ccc(S(=O)(=O)NC(C)(C)C)c(C(F)(F)F)c2)n(CC2CCCCC2)c1C', 'RORγ ligand binding domain (LBD) (Homo sapiens, UniProt P51449)', 'IC50', 0.794),
  ('Cc1c(C(=O)NCCC(C)(C)C(=O)O)cc(-c2ccc(S(=O)(=O)NC(C)(C)C)c(OC(F)(F)F)c2)n1CC1CCCCC1', 'RORγ ligand binding domain (LBD) (Homo sapiens, UniProt P51449)', 'IC50', 0.398),
  ('Cc1c(C(=O)NCC(C)(C)O)cc(-c2ccc(S(=O)(=O)NC(C)(C)C)c(C(C)(C)C)c2)n1CC1CCCCC1', 'RORγ ligand binding domain (LBD) (Homo sapiens, UniProt P51449)', 'IC50', 0.631),
  ('Cc1cc(C(C)(C)C)cc(-c2cc(C(=O)NCC(C)(C)O)c(C)n2CC2CCCCC2)c1OC(F)F', 'RORγ ligand binding domain (LBD) (Homo sapiens, UniProt P51449)', 'IC50', 1.58);

---

# pIC50 (FF) annotations
- testedOn: RORγ (UniProt P51449)
- testSummary: RORγ Gal4 Reporter Gene Assay in 293T cells (firefly and renilla luciferase)
- Assay type: cell-based, human
- measurementSetup: second value of the cell; Gal4 reporter gene assay in 293T cells, firefly luciferase
reportedProperty: pIC50 (FF)

INSERT INTO results (smilesrepresentation, testedon, endpointvalue) VALUES
  ('Cc1c(C(=O)NCC(C)(C)O)cc(-c2cc(C(=O)NC(C)C)cc(C3(C)CC3)c2)n1CC1CCCCC1', 'RORγ (UniProt P51449)', 7.1),
  ('Cc1c(C(=O)NCCC(C)(C)C(=O)O)cc(-c2ccc(S(=O)(=O)NC(C)(C)C)c(C(C)(C)C)c2)n1CC1CCCCC1', 'RORγ (UniProt P51449)', 7.0),
  ('Cc1c(C(=O)NCC(C)(C)C(=O)NCCCCO)cc(-c2cc(C(C)(C)C)c3c(c2)C2(CCO3)CC2)n1CC1CCCCC1', 'RORγ (UniProt P51449)', 7.1),
  ('Cc1c(C(=O)NCC(C)(C)O)cc(-c2cc(C(C)(C)C)cc(S(=O)(=O)N(C)C(C)(C)C)c2)n1CC1CCCCC1', 'RORγ (UniProt P51449)', 7.1);

---

# pIC50 (REN) annotations
- testedOn: RORγ (UniProt P51449)
- testSummary: RORγ Gal4 Reporter Gene Assay in 293T cells (firefly and renilla luciferase)
- Type: cell-based, human
- measurementSetup: third value of the cell; Gal4 reporter gene assay in 293T cells, renilla normalised luciferase
reportedProperty: pIC50 (REN)

INSERT INTO measurements (molecule, endpointvalue) VALUES
  ('Cc1c(C(=O)NC2CCOCC2)cc(-c2ccc(S(=O)(=O)NC(C)(C)C)c(C(F)(F)F)c2)n1[C@@H](C)C1CCCCC1 [17/253]', 7.2),
  ('Cc1c(C(=O)N[C@H]2C[C@H](C(=O)O)C2)cc(-c2ccc(S(=O)(=O)NC(C)(C)C)c3sccc23)n1CC1CCCCC1 [17/184]', 7.1),
  ('Cc1c(C(=O)NC2CCOCC2)cc(-c2cc(C(C)(C)O)cc(C3(C)CC3)c2)n1CC1CCCCC1 [1/43]', 7.1),
  ('Cc1c(C(=O)NCCS(C)(=O)=O)cc(-c2ccc(S(=O)(=O)NC(C)(C)C)c(C(C)(C)C)c2)n1CC1CCCCC1 [1/130]', 6.8);

---

- testedOn: RORγ (UniProt P51449)
- testSummary: RORγ Gal4 Reporter Gene Assay in 293T cells (firefly and renilla luciferase)
- Format: cell-based, human
- measurementSetup: second value of the cell; Gal4 reporter gene assay in 293T cells, firefly luciferase
reportedProperty: pIC50 (FF)

INSERT INTO results (smilesrepresentation, reportedproperty, endpointvalue) VALUES
  ('Cc1c(C(=O)NC2CCOCC2)cc(-c2ccc(S(=O)(=O)NC(C)(C)C)c3ccccc23)n1CC1CCC1', 'pIC50 (FF)', 7.5),
  ('Cc1c(C(=O)NC2CCOCC2)cc(-c2ccc(S(=O)(=O)NC(C)(C)C)c(C(F)(F)F)c2)n1CC1CCCCC1', 'pIC50 (FF)', 8.0),
  ('Cc1c(C(=O)NC2COC2)cc(-c2ccc(C(=O)NCC(C)(C)C)c(C(C)(C)C)c2)n1CC1CCCCC1', 'pIC50 (FF)', 6.4),
  ('Cc1c(C(=O)N[C@H]2C[C@H](C(=O)O)C2)cc(-c2cc(C(=O)NC(C)(C)C)cc3ccccc23)n1CC1CCCCC1', 'pIC50 (FF)', 6.3),
  ('Cc1c(C(=O)NC2CCOCC2)cc(-c2ccc(S(=O)(=O)NC(C)(C)C)c(Cl)c2)n1CC1CCCCC1', 'pIC50 (FF)', 7.1);

---

- testedOn: RORγ ligand binding domain (LBD) (Homo sapiens, UniProt P51449)
- Construct: made in house; host or cells: E. coli BL-21 (BL3), vector pDEST15
- Sequence (P51449 269-508 limits assumed): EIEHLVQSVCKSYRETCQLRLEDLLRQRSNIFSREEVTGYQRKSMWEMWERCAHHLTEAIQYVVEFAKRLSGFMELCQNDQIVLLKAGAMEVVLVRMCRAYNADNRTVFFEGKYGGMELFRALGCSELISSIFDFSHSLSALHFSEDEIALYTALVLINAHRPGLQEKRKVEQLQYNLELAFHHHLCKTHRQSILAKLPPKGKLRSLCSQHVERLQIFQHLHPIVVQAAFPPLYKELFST
- testSummary: TR-FRET Activity Assay (ligand sensing, RORγ-LBD / coactivator peptide interaction, LANCE)
- Format: biochemical
- measurementSetup: first value of the cell FRET/FF/REN; TR-FRET activity assay; read-out: pIC50 (FRET) (converted)
# log10 IC50 annotations
reportedProperty: log10 IC50 (log10 of the value in µM)

INSERT INTO measurements (smilesrepresentation, endpointvalue) VALUES
  ('Cc1c(C(=O)NC2CCOCC2)cc(-c2ccc(S(=O)(=O)NC(C)(C)C)c3ccccc23)n1CC1CCC1', -0.40),
  ('Cc1c(C(=O)N[C@H]2C[C@H](C(=O)O)C2)cc(-c2cc(C(C)(C)C)cc(C3(O)CC3)c2)n1CC1CCCCC1', -0.20),
  ('Cc1c(C(=O)NC2COC2)cc(-c2cn(S(=O)(=O)N3CCCCC3)c3ccccc23)n1CC1CCCCC1', -0.30),
  ('Cc1c(C(=O)N[C@H]2C[C@H](C(=O)O)C2)cc(-c2ccc(S(=O)(=O)NC3(C#N)CC3)c(C(F)(F)F)c2)n1CC1CCCCC1', 0.10),
  ('Cc1c(C(=O)NCC(C)(C)C(=O)O)cc(-c2ccc(S(=O)(=O)NC(C)(C)C)c(C(C)(C)O)c2)n1CC1CCCCC1', -0.10),
  ('Cc1c(C(=O)NC2CCOCC2)cc(-c2ccc(S(=O)(=O)NCC3(C)COC3)c(C(F)(F)F)c2)n1CC1CCCCC1', -0.10),
  ('Cc1c(C(=O)NCC2CCS(=O)(=O)CC2)cc(-c2ccc(S(=O)(=O)NC(C)(C)C)c3ccccc23)n1CC1CCCCC1', -0.50),
  ('Cc1c(C(=O)NCC2(C)COC2)cc(-c2cc(C(C)(C)C)c3c(c2)C2(CCO3)CC2)n1CC1CCCCC1', -0.60),
  ('Cc1c(C(=O)NS(C)(=O)=O)cc(-c2cc(C(C)(C)C)cc(C(C)(C)C)c2)n1CC1CCCCC1', 0.40),
  ('Cc1c(C(=O)NCC(N)=O)cc(-c2cc(C(C)(C)C)cc(C(C)(C)C)c2)n1CC1CCCCC1', 0.00),
  ('Cc1c(C(=O)NC2CCOCC2)cc(-c2ccc(S(=O)(=O)NC(C)(C)C)c(Cl)c2)n1CC1CCCCC1', -0.70),
  ('Cc1c(C(=O)NCCC(C)(C)C(=O)O)cc(-c2ccc(S(=O)(=O)NC3(C#N)CC3)c(C(F)(F)F)c2)n1CC1CCCCC1', 0.30),
  ('Cc1c(C(=O)NC2CCOCC2)cc(-c2ccc(S(=O)(=O)NC3CCC3)c(C(C)(C)C)c2)n1CC1CCCCC1', -0.40),
  ('Cc1c(C(=O)N[C@H]2C[C@H](C(=O)O)C2)cc(-c2ccc(S(=O)(=O)NC(C)(C)C)c3ccccc23)n1CC1CCCCC1', -0.10),
  ('Cc1c(C(=O)N[C@H]2C[C@](C)(C(=O)O)C2)cc(-c2ccc(S(=O)(=O)NC(C)(C)C)c(C(F)F)c2)n1CC1CCCCC1', -0.50);
